target: HIPK1 (human); assay: radiometric filter-binding kinase assay, Kinase HotSpot; conditions: compound 0.5 µM; ATP 10 µM
Entries and their residual activity values follow.
Readout Kind: residual activity (%)

[
  {
    "Item Smiles": "O=C(c1ccccc1)c1ccc(N2CCOCC2)cc1O",
    "Meas Value": 104
  },
  {
    "Item Smiles": "N#Cc1c(NC(=O)c2cccc3ccccc23)sc2c1CCCC2",
    "Meas Value": 107
  },
  {
    "Item Smiles": "COc1cc2ncnc(Nc3ccc(O)c(Br)c3)c2cc1OC",
    "Meas Value": 104
  }
]

====

molecular target: UniProt:Q15349; test: radiometric filter-binding kinase assay, Kinase HotSpot; details: compound 0.5 µM; ATP 10 µM
Sequence (Q15349 whole entry, looked up): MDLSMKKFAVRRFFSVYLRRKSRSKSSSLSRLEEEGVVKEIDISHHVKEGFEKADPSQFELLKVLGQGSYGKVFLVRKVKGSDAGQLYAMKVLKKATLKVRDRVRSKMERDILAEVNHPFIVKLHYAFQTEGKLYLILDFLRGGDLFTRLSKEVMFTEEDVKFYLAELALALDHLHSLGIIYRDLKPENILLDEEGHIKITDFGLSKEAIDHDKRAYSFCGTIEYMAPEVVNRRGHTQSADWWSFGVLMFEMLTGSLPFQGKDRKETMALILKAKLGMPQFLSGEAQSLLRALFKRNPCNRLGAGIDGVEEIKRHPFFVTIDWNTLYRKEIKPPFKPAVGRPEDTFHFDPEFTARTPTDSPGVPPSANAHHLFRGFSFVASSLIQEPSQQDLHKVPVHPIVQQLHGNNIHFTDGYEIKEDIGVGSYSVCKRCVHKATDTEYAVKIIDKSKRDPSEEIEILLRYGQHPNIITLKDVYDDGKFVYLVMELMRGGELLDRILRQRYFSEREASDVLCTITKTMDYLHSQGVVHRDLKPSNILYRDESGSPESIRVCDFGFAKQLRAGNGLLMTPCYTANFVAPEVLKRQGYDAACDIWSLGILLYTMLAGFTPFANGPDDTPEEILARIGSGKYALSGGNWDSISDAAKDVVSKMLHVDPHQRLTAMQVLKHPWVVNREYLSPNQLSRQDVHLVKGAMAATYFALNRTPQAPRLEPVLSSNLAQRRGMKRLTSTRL
Entries and their residual activity values follow.

[
  {
    "Item Smiles": "FC(F)(F)c1ccc(/C=C/c2nc(COc3ccc(CCCCn4ccnn4)cc3)co2)cc1",
    "residual activity [%]": 96.8
  },
  {
    "Item Smiles": "CCc1nc(-c2ccc(OC)cc2)[nH]c1-c1ccncc1",
    "residual activity [%]": 99.1
  },
  {
    "Item Smiles": "O=c1c(-c2ccc(F)cc2)c(-c2ccncc2)[nH]n1-c1ccc(Cl)cc1",
    "residual activity [%]": 91.8
  },
  {
    "Item Smiles": "COc1cc2ncnc(Nc3ccc(O)c(Br)c3)c2cc1OC",
    "residual activity [%]": 63.6
  }
]

====

Entries and their residual activity values follow.
target: SRPK1 (human); experiment: radiometric filter-binding kinase assay, Kinase HotSpot; conditions: compound 0.5 µM; ATP 10 µM
Readout Kind: residual activity (%)

[
  {
    "Item Smiles": "COc1cc2ncnc(Nc3ccc(O)c(Br)c3)c2cc1OC",
    "Measured On": "SRPK1 (human)",
    "Readout Kind": "residual activity",
    "Meas Value": 91.8
  },
  {
    "Item Smiles": "FC(F)(F)c1ccc(/C=C/c2nc(COc3ccc(CCCCn4ccnn4)cc3)co2)cc1",
    "Measured On": "SRPK1 (human)",
    "Readout Kind": "residual activity",
    "Meas Value": 98.1
  },
  {
    "Item Smiles": "COc1cccc(-c2cc(=O)c3ccccc3o2)c1N",
    "Measured On": "SRPK1 (human)",
    "Readout Kind": "residual activity",
    "Meas Value": 93.4
  },
  {
    "Item Smiles": "CCc1nc(-c2ccc(OC)cc2)[nH]c1-c1ccncc1",
    "Measured On": "SRPK1 (human)",
    "Readout Kind": "residual activity",
    "Meas Value": 106
  },
  {
    "Item Smiles": "Cn1cc(/C=C2\\C(=O)Nc3ccc(S(N)(=O)=O)cc32)c2ccccc21",
    "Measured On": "SRPK1 (human)",
    "Readout Kind": "residual activity",
    "Meas Value": 69
  },
  {
    "Item Smiles": "Nc1ncnc2c1cnn2-c1ccccc1",
    "Measured On": "SRPK1 (human)",
    "Readout Kind": "residual activity",
    "Meas Value": 98.1
  }
]

====

Entries and their residual activity values follow.
molecular target: NEK9 (human) (UniProt Q8TD19); experiment: radiometric filter-binding kinase assay, Kinase HotSpot; details: compound 0.5 µM; ATP 10 µM
Sequence (Q8TD19 whole entry, looked up): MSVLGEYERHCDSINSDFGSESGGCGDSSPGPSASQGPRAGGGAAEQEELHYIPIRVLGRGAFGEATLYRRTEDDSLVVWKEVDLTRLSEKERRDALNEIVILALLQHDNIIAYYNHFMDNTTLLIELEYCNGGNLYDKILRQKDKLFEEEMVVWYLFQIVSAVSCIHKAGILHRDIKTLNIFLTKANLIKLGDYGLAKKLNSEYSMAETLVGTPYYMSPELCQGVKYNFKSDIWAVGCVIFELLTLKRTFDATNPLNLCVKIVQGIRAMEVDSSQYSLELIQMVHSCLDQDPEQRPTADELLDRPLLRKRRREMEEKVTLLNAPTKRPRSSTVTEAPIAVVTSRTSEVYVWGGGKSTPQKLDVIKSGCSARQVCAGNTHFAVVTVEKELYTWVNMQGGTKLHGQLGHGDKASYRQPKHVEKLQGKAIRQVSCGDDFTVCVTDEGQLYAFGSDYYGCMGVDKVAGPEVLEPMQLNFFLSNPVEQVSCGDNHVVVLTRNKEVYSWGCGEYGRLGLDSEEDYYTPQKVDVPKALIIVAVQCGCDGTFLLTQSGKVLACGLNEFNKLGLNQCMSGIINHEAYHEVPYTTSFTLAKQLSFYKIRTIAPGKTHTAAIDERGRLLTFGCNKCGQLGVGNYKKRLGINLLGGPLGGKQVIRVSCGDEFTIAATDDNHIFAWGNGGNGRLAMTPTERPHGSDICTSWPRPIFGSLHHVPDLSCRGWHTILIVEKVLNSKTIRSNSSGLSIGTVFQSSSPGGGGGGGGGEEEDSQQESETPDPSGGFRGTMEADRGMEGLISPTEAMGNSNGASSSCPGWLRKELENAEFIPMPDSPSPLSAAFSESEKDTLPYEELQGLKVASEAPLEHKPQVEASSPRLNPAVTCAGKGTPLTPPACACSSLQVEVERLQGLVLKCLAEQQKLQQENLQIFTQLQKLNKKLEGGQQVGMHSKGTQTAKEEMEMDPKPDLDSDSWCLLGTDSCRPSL
Readout Kind: residual activity (%)

[
  {
    "Item Smiles": "CCc1nc(-c2ccc(OC)cc2)[nH]c1-c1ccncc1",
    "Measured On": "NEK9 (human) (UniProt Q8TD19)",
    "Readout Kind": "residual activity",
    "Meas Value": 101
  },
  {
    "Item Smiles": "Nc1ncnc2c1cnn2-c1ccccc1",
    "Measured On": "NEK9 (human) (UniProt Q8TD19)",
    "Readout Kind": "residual activity",
    "Meas Value": 110
  },
  {
    "Item Smiles": "COc1cc2c(Nc3ccc(Br)cc3F)ncnc2cc1OCC1CCN(C)CC1",
    "Measured On": "NEK9 (human) (UniProt Q8TD19)",
    "Readout Kind": "residual activity",
    "Meas Value": 101
  },
  {
    "Item Smiles": "N#CCCc1ccc2c(c1)-c1[nH]c3ccc([N+](=O)[O-])cc3c1CC(=O)N2",
    "Measured On": "NEK9 (human) (UniProt Q8TD19)",
    "Readout Kind": "residual activity",
    "Meas Value": 103
  },
  {
    "Item Smiles": "COc1cc2c(N3CCN(C(=O)Nc4ccc(OC(C)C)cc4)CC3)ncnc2cc1OCCCN1CCCCC1",
    "Measured On": "NEK9 (human) (UniProt Q8TD19)",
    "Readout Kind": "residual activity",
    "Meas Value": 97.2
  },
  {
    "Item Smiles": "N/C(=N\\N=C/c1ccc(-c2cccc([N+](=O)[O-])c2)o1)N[N+](=O)[O-]",
    "Measured On": "NEK9 (human) (UniProt Q8TD19)",
    "Readout Kind": "residual activity",
    "Meas Value": 91.8
  },
  {
    "Item Smiles": "O=C1NC(=O)c2cc(Nc3ccc(F)cc3)c(Nc3ccc(F)cc3)cc21",
    "Measured On": "NEK9 (human) (UniProt Q8TD19)",
    "Readout Kind": "residual activity",
    "Meas Value": 107
  },
  {
    "Item Smiles": "Cc1cc(Nc2nc(-c3ccccc3)nc3ccccc23)n[nH]1",
    "Measured On": "NEK9 (human) (UniProt Q8TD19)",
    "Readout Kind": "residual activity",
    "Meas Value": 79.9
  },
  {
    "Item Smiles": "COc1cc2c(cc1OC)-c1[nH]nc(Nc3cccc(F)c3)c1C2",
    "Measured On": "NEK9 (human) (UniProt Q8TD19)",
    "Readout Kind": "residual activity",
    "Meas Value": 102
  },
  {
    "Item Smiles": "N#C/C(=C1/Nc2ccccc2S1)c1ccnc(NCCc2cccnc2)n1",
    "Measured On": "NEK9 (human) (UniProt Q8TD19)",
    "Readout Kind": "residual activity",
    "Meas Value": 94.4
  },
  {
    "Item Smiles": "O=c1[nH]c2ccccc2n1C1CCN(Cc2ccc(-c3nc4cc5[nH]cnc5cc4nc3-c3ccccc3)cc2)CC1",
    "Measured On": "NEK9 (human) (UniProt Q8TD19)",
    "Readout Kind": "residual activity",
    "Meas Value": 99.2
  },
  {
    "Item Smiles": "O=c1c(-c2ccc(F)cc2)c(-c2ccncc2)[nH]n1-c1ccc(Cl)cc1",
    "Measured On": "NEK9 (human) (UniProt Q8TD19)",
    "Readout Kind": "residual activity",
    "Meas Value": 107
  },
  {
    "Item Smiles": "COc1cccc(-c2cc(=O)c3ccccc3o2)c1N",
    "Measured On": "NEK9 (human) (UniProt Q8TD19)",
    "Readout Kind": "residual activity",
    "Meas Value": 102
  },
  {
    "Item Smiles": "O=C1NC(=O)c2c1c1c3ccccc3[nH]c1c1[nH]c3cc(Br)ccc3c21",
    "Measured On": "NEK9 (human) (UniProt Q8TD19)",
    "Readout Kind": "residual activity",
    "Meas Value": 83.6
  },
  {
    "Item Smiles": "O=C(c1ccccc1)c1ccc(N2CCOCC2)cc1O",
    "Measured On": "NEK9 (human) (UniProt Q8TD19)",
    "Readout Kind": "residual activity",
    "Meas Value": 103
  },
  {
    "Item Smiles": "O=c1c2ccccc2[nH]c(=S)n1CCN1CCC(=C(c2ccc(F)cc2)c2ccc(F)cc2)CC1",
    "Measured On": "NEK9 (human) (UniProt Q8TD19)",
    "Readout Kind": "residual activity",
    "Meas Value": 97
  },
  {
    "Item Smiles": "O=c1cc(N2CCOCC2)oc2c(-c3ccccc3)cccc12",
    "Measured On": "NEK9 (human) (UniProt Q8TD19)",
    "Readout Kind": "residual activity",
    "Meas Value": 101
  },
  {
    "Item Smiles": "N#Cc1c(NC(=O)c2cccc3ccccc23)sc2c1CCCC2",
    "Measured On": "NEK9 (human) (UniProt Q8TD19)",
    "Readout Kind": "residual activity",
    "Meas Value": 96
  },
  {
    "Item Smiles": "c1ccc(-c2cnc(Nc3ccc(OCCN4CCCC4)cc3)s2)cc1",
    "Measured On": "NEK9 (human) (UniProt Q8TD19)",
    "Readout Kind": "residual activity",
    "Meas Value": 101
  },
  {
    "Item Smiles": "O=S(=O)(NCCNC/C=C/c1ccc(Br)cc1)c1cccc2cnccc12",
    "Measured On": "NEK9 (human) (UniProt Q8TD19)",
    "Readout Kind": "residual activity",
    "Meas Value": 99.3
  },
  {
    "Item Smiles": "O=C(O)c1ccc2c3c1cccc3c(=O)n1c3ccccc3nc21",
    "Measured On": "NEK9 (human) (UniProt Q8TD19)",
    "Readout Kind": "residual activity",
    "Meas Value": 94.1
  },
  {
    "Item Smiles": "Cn1cc(/C=C2\\C(=O)Nc3ccc(S(N)(=O)=O)cc32)c2ccccc21",
    "Measured On": "NEK9 (human) (UniProt Q8TD19)",
    "Readout Kind": "residual activity",
    "Meas Value": 67.3
  },
  {
    "Item Smiles": "CCCCc1c(-c2ccc(O)cc2)[nH]c2nccnc12",
    "Measured On": "NEK9 (human) (UniProt Q8TD19)",
    "Readout Kind": "residual activity",
    "Meas Value": 105
  },
  {
    "Item Smiles": "COc1cc2ncnc(Nc3ccc(O)c(Br)c3)c2cc1OC",
    "Measured On": "NEK9 (human) (UniProt Q8TD19)",
    "Readout Kind": "residual activity",
    "Meas Value": 104
  },
  {
    "Item Smiles": "FC(F)(F)c1ccc(/C=C/c2nc(COc3ccc(CCCCn4ccnn4)cc3)co2)cc1",
    "Measured On": "NEK9 (human) (UniProt Q8TD19)",
    "Readout Kind": "residual activity",
    "Meas Value": 95.5
  },
  {
    "Item Smiles": "CCOc1cc2ncnc(Nc3cccc(Br)c3)c2cc1OCC",
    "Measured On": "NEK9 (human) (UniProt Q8TD19)",
    "Readout Kind": "residual activity",
    "Meas Value": 96.7
  }
]
